FYI, the data here is from ChEMBL document CHEMBL4715745.

system: MKN-74; assay: Growth inhibition of human MKN-74 cells measured after 48 hrs by sulforhodamine B assay; assay type: functional
Exercise: for every item that follows, state its recorded log10(GI50).
Log10 applied to GI50; unit prior to transform: nM.

As a guide, the following entries are already answered.
                              smiles_record  readout_kind  recorded_number
0  CC(C)[C@H]1NC(=O)C[C@H]2/C=C/CCSSC[C@@H](NC1=O)C(=O)N[C@H](Cc1ccccc1)C(=O)NCC(=O)O2   log10(GI50)             0.77
1  C/C=C1\NC(=O)[C@H]2CSSCC/C=C/[C@H](CC(=O)N[C@H](C(C)C)C(=O)N2)OC(=O)CNC1=O   log10(GI50)             2.00

Batch request: log10(GI50) per item, same order as input.
1. CC(C)[C@H]1NC(=O)C[C@H]2/C=C/CCSSC[C@@H](NC1=O)C(=O)N[C@@H](Cc1ccccc1)C(=O)NCC(=O)O2
2. CC(C)[C@H]1NC(=O)C[C@H]2/C=C/CCSSC[C@@H](NC1=O)C(=O)N[C@H](C)C(=O)NCC(=O)O2
3. CC(C)C[C@H]1NC(=O)[C@H]2CSSCC/C=C/[C@H](CC(=O)N[C@H](C(C)C)C(=O)N2)OC(=O)CNC1=O
4. CC(C)[C@H]1NC(=O)C[C@H]2/C=C/CCSSC[C@@H](NC1=O)C(=O)N[C@@H](C)C(=O)NCC(=O)O2
5. CC(C)C[C@@H]1NC(=O)[C@H]2CSSCC/C=C/[C@H](CC(=O)N[C@H](C(C)C)C(=O)N2)OC(=O)CNC1=O

1. 2.70
2. 1.54
3. 1.64
4. 4.26
5. 3.18

Form field: log10(GI50) recorded for CC(C)[C@H]1NC(=O)C[C@H]2/C=C/CCSSC[C@@H](NC1=O)C(=O)NCC(=O)NCC(=O)O2 with MKN-74 (enter value)
4.20

====

system: U-251; assay: Growth inhibition of human U-251 cells measured after 48 hrs by sulforhodamine B assay; type: functional
Consider the following compounds; for each one, report its GI50.
Numbers only, in nM.

In [3]: df
Out[3]:
                              smiles_record  uom  recorded_number
0  CC(C)[C@H]1NC(=O)C[C@H]2/C=C/CCSSC[C@@H](NC1=O)C(=O)NCC(=O)NCC(=O)O2   nM            17000
1  CC(C)C[C@@H]1NC(=O)[C@H]2CSSCC/C=C/[C@H](CC(=O)N[C@H](C(C)C)C(=O)N2)OC(=O)CNC1=O   nM              330
2  CC(C)[C@H]1NC(=O)C[C@H]2/C=C/CCSSC[C@@H](NC1=O)C(=O)N[C@H](Cc1ccccc1)C(=O)NCC(=O)O2   nM               22

Could you now consider this next compound?
Item CC(C)[C@H]1NC(=O)C[C@H]2/C=C/CCSSC[C@@H](NC1=O)C(=O)N[C@H](C)C(=O)NCC(=O)O2 has what recorded GI50?
19

====

test system: RXF 631; assay: Growth inhibition of human RXF 631 cells measured after 48 hrs by sulforhodamine B assay; format: functional
READOUT KIND: GI50 (µM)
One number for each entry, in µM.

Some entries whose results are on file:
                              smiles_record  tested_target  recorded_number
0  CC(C)[C@H]1NC(=O)C[C@H]2/C=C/CCSSC[C@@H](NC1=O)C(=O)N[C@H](Cc1ccccc1)C(=O)NCC(=O)O2        RXF 631           0.0079
1  CC(C)C[C@@H]1NC(=O)[C@H]2CSSCC/C=C/[C@H](CC(=O)N[C@H](C(C)C)C(=O)N2)OC(=O)CNC1=O        RXF 631              3.2

Give measured GI50 for every item shown.
1. CC(C)[C@H]1NC(=O)C[C@H]2/C=C/CCSSC[C@@H](NC1=O)C(=O)N[C@H](C)C(=O)NCC(=O)O2
2. CC(C)[C@H]1NC(=O)C[C@H]2/C=C/CCSSC[C@@H](NC1=O)C(=O)N[C@@H](C)C(=O)NCC(=O)O2
3. C/C=C1\NC(=O)[C@H]2CSSCC/C=C/[C@H](CC(=O)N[C@H](C(C)C)C(=O)N2)OC(=O)CNC1=O
4. CC(C)[C@H]1NC(=O)C[C@H]2/C=C/CCSSC[C@@H](NC1=O)C(=O)NCC(=O)NCC(=O)O2
5. CC(C)[C@H]1NC(=O)C[C@H]2/C=C/CCSSC[C@@H](NC1=O)C(=O)N[C@@H](Cc1ccccc1)C(=O)NCC(=O)O2
6. CC(C)C[C@H]1NC(=O)[C@H]2CSSCC/C=C/[C@H](CC(=O)N[C@H](C(C)C)C(=O)N2)OC(=O)CNC1=O

1. 0.11
2. 100
3. 0.23
4. 91
5. 1.8
6. 0.068

====

target: UniProtKB Q13547; test: Inhibition of human HDAC1 expressed in 293T cells using Ac-KGLGK(Ac)-MCA as substrate incubated for 30 mins in presence of 0.1 mM DTT by fluorescence plate reader assay; parameters: species or system HEK293T
Sequence (Q13547 whole entry): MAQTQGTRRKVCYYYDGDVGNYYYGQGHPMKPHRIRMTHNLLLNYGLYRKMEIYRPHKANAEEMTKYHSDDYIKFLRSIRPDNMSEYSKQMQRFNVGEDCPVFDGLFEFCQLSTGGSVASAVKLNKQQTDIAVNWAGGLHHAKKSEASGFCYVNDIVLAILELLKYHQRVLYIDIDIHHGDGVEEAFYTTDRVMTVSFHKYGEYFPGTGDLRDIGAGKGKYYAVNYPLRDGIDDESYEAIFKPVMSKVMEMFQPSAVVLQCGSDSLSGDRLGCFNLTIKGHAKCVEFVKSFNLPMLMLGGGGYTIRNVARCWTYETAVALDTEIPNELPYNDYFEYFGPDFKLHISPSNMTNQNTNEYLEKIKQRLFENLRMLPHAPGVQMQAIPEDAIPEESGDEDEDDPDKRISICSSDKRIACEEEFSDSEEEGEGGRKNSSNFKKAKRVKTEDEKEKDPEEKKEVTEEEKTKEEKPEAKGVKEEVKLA
READOUT KIND: IC50 (nM)
Give bare numbers, in nM.

These recorded examples may help you get a feel for the data.
In [3]: df
Out[3]:
                              smiles_record  recorded_number
0  CC(C)[C@H]1NC(=O)C[C@H]2/C=C/CCSSC[C@@H](NC1=O)C(=O)N[C@H](Cc1ccccc1)C(=O)NCC(=O)O2             0.54
1  C/C=C1\NC(=O)[C@H]2CSSCC/C=C/[C@H](CC(=O)N[C@H](C(C)C)C(=O)N2)OC(=O)CNC1=O              4.7
2  CC(C)[C@H]1NC(=O)C[C@H]2/C=C/CCSSC[C@@H](NC1=O)C(=O)N[C@@H](C)C(=O)NCC(=O)O2              184

Proceeding to the next molecule to report its IC50.
Please tell me: IC50 of CC(C)[C@H]1NC(=O)C[C@H]2/C=C/CCSSC[C@@H](NC1=O)C(=O)N[C@@H](Cc1ccccc1)C(=O)NCC(=O)O2 , system UniProtKB Q13547?
40.8

====

tested on: A549; test: Growth inhibition of human A549 cells measured after 48 hrs by sulforhodamine B assay; format: functional
The label 1 is reserved for GI50 strictly under 0.05 µM; -1 covers values equal to or above it.

>>> df
                              smiles_record  tested_target  category_label
0  C/C=C1\NC(=O)[C@H]2CSSCC/C=C/[C@H](CC(=O)N[C@H](C(C)C)C(=O)N2)OC(=O)CNC1=O           A549              -1

Take the molecule CC(C)[C@H]1NC(=O)C[C@H]2/C=C/CCSSC[C@@H](NC1=O)C(=O)N[C@@H](C)C(=O)NCC(=O)O2 and say whether its GI50 is less than 0.05 µM.
-1

Please state whether GI50 is below 0.05 µM for CC(C)[C@H]1NC(=O)C[C@H]2/C=C/CCSSC[C@@H](NC1=O)C(=O)N[C@H](Cc1ccccc1)C(=O)NCC(=O)O2
1

Strictly below 0.05 µM: is that where GI50 of CC(C)[C@H]1NC(=O)C[C@H]2/C=C/CCSSC[C@@H](NC1=O)C(=O)N[C@H](C)C(=O)NCC(=O)O2 sits?
1

# TODO verify GI50 < 0.05 µM strictly for this molecule: CC(C)[C@H]1NC(=O)C[C@H]2/C=C/CCSSC[C@@H](NC1=O)C(=O)N[C@@H](Cc1ccccc1)C(=O)NCC(=O)O2
-1

Please indicate whether the reported GI50 of CC(C)C[C@@H]1NC(=O)[C@H]2CSSCC/C=C/[C@H](CC(=O)N[C@H](C(C)C)C(=O)N2)OC(=O)CNC1=O is strictly below 0.05 µM.
-1

Strictly below 0.05 µM: is that where GI50 of CC(C)[C@H]1NC(=O)C[C@H]2/C=C/CCSSC[C@@H](NC1=O)C(=O)NCC(=O)NCC(=O)O2 sits?
-1

Does the reported GI50 of the following molecule sit strictly below 0.05 µM? CC(C)C[C@H]1NC(=O)[C@H]2CSSCC/C=C/[C@H](CC(=O)N[C@H](C(C)C)C(=O)N2)OC(=O)CNC1=O
1

====

system: MKN-7; experiment: Growth inhibition of human MKN-7 cells measured after 48 hrs by sulforhodamine B assay; type: functional
I'd be grateful if you could share measured GI50 for these entries.
Answers are plain numbers, in nM.

Field: example entries. Status: answers known.
>>> print(df.to_string())
                              smiles_record  recorded_number
0  CC(C)C[C@H]1NC(=O)[C@H]2CSSCC/C=C/[C@H](CC(=O)N[C@H](C(C)C)C(=O)N2)OC(=O)CNC1=O              280
1  CC(C)[C@H]1NC(=O)C[C@H]2/C=C/CCSSC[C@@H](NC1=O)C(=O)N[C@@H](C)C(=O)NCC(=O)O2            43000

Reported GI50, molecule CC(C)[C@H]1NC(=O)C[C@H]2/C=C/CCSSC[C@@H](NC1=O)C(=O)N[C@H](C)C(=O)NCC(=O)O2 : ____
260
